# Test system: Phakopsora pachyrhizi (F129L)
# protocol: Protective control of soybean rust on soybeans (PHAKPA P6)
# Assay type: in vivo
# conditions-used: protective P6, 4 ppm, soybean rust F129L
metric-name: % PHAKPA (F129L) Disease level P6 at 4 ppm (%)

[[record]]
entry_smiles = "CNC(=O)/C(=N/OC)c1cccc(C)c1CO/N=C(\\C)c1c(F)cccc1C(F)(F)F"
measurement = 32

[[record]]
entry_smiles = "CNC(=O)/C(=N/OC)c1cccc(C)c1CO/N=C(\\C)c1ccc(OC)cc1C(F)(F)F"
measurement = 12

[[record]]
entry_smiles = "CO/N=C(/C(=O)OC)c1cccc(C)c1CO/N=C(\\C)c1cc(C(F)(F)F)ccc1F"
measurement = 0

[[record]]
entry_smiles = "C=Cc1cccc(/C(=N\\OC)C(=O)NC)c1CO/N=C(\\C)c1cccc(C(F)(F)F)c1"
measurement = 11

[[record]]
entry_smiles = "CO/N=C(/C)c1ccc(/C(C)=N/OCc2c(C)cccc2/C(=N\\OC)C(=O)OC)c(C(F)(F)F)c1"
measurement = 63

[[record]]
entry_smiles = "CO/N=C(/C(=O)OC)c1cccc(C)c1CO/N=C(\\C)c1ccc(OC)cc1"
measurement = 80


----------
# Test system: Phakopsora pachyrhizi (F129L)
# protocol: Protective control of soybean rust on soybeans (PHAKPA P2)
# Assay type: in vivo
# conditions-used: protective P2, 16 ppm, soybean rust F129L
metric-name: % PHAKPA (F129L) Disease level P2 at 16 ppm (%)

[[record]]
compound = "CO/N=C(/C(=O)OC)c1cccc(C)c1CO/N=C(\\C)c1ccc(Cl)cc1C(F)(F)F [compound 304]"
measurement = 28

[[record]]
compound = "CNC(=O)/C(=N/OC)c1cccc(C)c1CO/N=C(\\C)c1cc(C(F)(F)F)cc(C(F)(F)F)c1 [compound 32]"
measurement = 50

[[record]]
compound = "CNC(=O)/C(=N/OC)c1cccc(C)c1CO/N=C(\\C(C)=O)c1cccc(C(F)(F)F)c1 [compound 93]"
measurement = 32

[[record]]
compound = "CNC(=O)/C(=N/OC)c1cccc(C)c1CO/N=C(\\C)c1ccc(C(F)(F)F)cc1 [compound 39]"
measurement = 4

[[record]]
compound = "CNC(=O)/C(=N/OC)c1cccc(C)c1CO/N=C(\\C)c1cc(Cl)c(F)c(Cl)c1 [compound 247]"
measurement = 2

[[record]]
compound = "COC=C(C(=O)OC)c1cccc(C)c1CON=C(C)c1ccccc1C(F)(F)F [Ex. 244]"
measurement = 0

[[record]]
compound = "CO/N=C(/C(=O)OC)c1cccc(C)c1CO/N=C(\\C)c1cccc(C(C)(C)C)c1 [compound 96]"
measurement = 1

[[record]]
compound = "CO/N=C(/C(=O)OC)c1cccc(C)c1CO/N=C(\\C)c1c(Cl)cc(Cl)cc1OC(F)(F)F [compound 427]"
measurement = 90

[[record]]
compound = "CNC(=O)/C(=N/OC)c1cccc(C)c1CO/N=C(\\C)c1ccc(C#N)cc1 [Ex. 159]"
measurement = 2

[[record]]
compound = "CO/N=C(/C(=O)OC)c1cccc(C)c1CO/N=C(\\C)c1cc(-c2ccccc2)cc(C(F)(F)F)c1 [compound 144]"
measurement = 80

[[record]]
compound = "CO/C=C(/C(=O)OC)c1cccc(C)c1CO/N=C(\\C)c1c(Cl)ccc(F)c1OC(F)(F)F [compound 442]"
measurement = 93

[[record]]
compound = "CO/N=C(/C)c1ccc(/C(C)=N/OCc2c(C)cccc2/C(=N\\OC)C(=O)OC)c(OC(F)(F)F)c1 [compound 418]"
measurement = 33

[[record]]
compound = "CO/N=C(/C(=O)OC)c1cccc(C)c1CO/N=C(\\C)c1cc(F)ccc1C(F)(F)F [compound 249]"
measurement = 37

[[record]]
compound = "CO/N=C(/C(=O)OC)c1cccc(C)c1CO/N=C(\\C)c1ccc(F)c(C(F)(F)F)c1 [compound 49]"
measurement = 18

[[record]]
compound = "CNC(=O)/C(=N/OC)c1cccc(C)c1CO/N=C(\\C)c1ccccc1OC(F)F [compound 252]"
measurement = 3

[[record]]
compound = "CNC(=O)/C(=N/OC)c1cccc(C)c1CO/N=C(\\C)c1ccc(F)cc1C(F)(F)F [compound 260]"
measurement = 0

[[record]]
compound = "CCOc1ccccc1/C(C)=N/OCc1c(C)cccc1/C(=N\\OC)C(=O)NC [compound 312]"
measurement = 53

[[record]]
compound = "CO/N=C(/C(=O)OC)c1cccc(C)c1CO/N=C(\\C)c1cc(C)cc(C)c1 [compound 94]"
measurement = 5

[[record]]
compound = "CNC(=O)/C(=N/OC)c1cccc(C)c1CO/N=C(\\C)c1cccc(F)c1 [compound 85]"
measurement = 0

[[record]]
compound = "CO/C=C(/C(=O)OC)c1cccc(C)c1CO/N=C(\\C)c1ccc(-c2ccc(F)cc2)cc1C(F)(F)F [compound 432]"
measurement = 0

[[record]]
compound = "CNC(=O)/C(=N/OC)c1cccc(C)c1CO/N=C(\\C)c1cccc(C(F)(F)F)c1 [Ex. 8]"
measurement = 0

[[record]]
compound = "CO/N=C(/C(=O)OC)c1cccc(C)c1CO/N=C(\\C)c1ccc(Cc2ccccc2)cc1OC(F)(F)F [compound 416]"
measurement = 27

[[record]]
compound = "CNC(=O)/C(=N/OC)c1cccc(C)c1CO/N=C(\\C)c1ccc(-c2cc(C)on2)cc1 [compound 64]"
measurement = 73

[[record]]
compound = "CNC(=O)/C(=N/OC)c1cccc(C)c1CO/N=C(\\C)c1ccc(C#N)cc1C(F)(F)F [compound 424]"
measurement = 27

[[record]]
compound = "CNC(=O)/C(=N/OC)c1cccc(C)c1CO/N=C(\\C)c1ccc(C)cc1OC(F)(F)F [compound 340]"
measurement = 4

[[record]]
compound = "CNC(=O)/C(=N/OC)c1cccc(C)c1CO/N=C(\\C)c1ccc(Cl)c(C(F)(F)F)c1 [Ex. 60]"
measurement = 1


----------
Parameter: % PHAKPA (F129L) Disease level P6 at 4 ppm. Scope: all listed entries.
# Test system: Phakopsora pachyrhizi (F129L)
# protocol: Protective control of soybean rust on soybeans (PHAKPA P6)
# Format: in vivo
# conditions-used: protective P6, 4 ppm, soybean rust F129L
metric-name: % PHAKPA (F129L) Disease level P6 at 4 ppm

[[record]]
entry_smiles = "CNC(=O)/C(=N/OC)c1cccc(C)c1CO/N=C(\\C)c1cc(Cl)cc(C(F)(F)F)c1"
measurement = "22%"

[[record]]
entry_smiles = "CNC(=O)/C(=N/OC)c1cccc(C)c1CO/N=C(/c1ccccc1)C(C)C"
measurement = "43%"

[[record]]
entry_smiles = "CO/N=C(/C(=O)OC)c1cccc(C)c1CO/N=C(\\C)c1cccc(-c2cc(C)on2)c1"
measurement = "97%"

[[record]]
entry_smiles = "CNC(=O)/C(=N/OC)c1cccc(C)c1CO/N=C(\\C)c1cccc(C(C)C)c1"
measurement = "39%"

[[record]]
entry_smiles = "CNC(=O)/C(=N/OC)c1cccc(C)c1CO/N=C(\\C)c1cccc(-c2cc(C)on2)c1"
measurement = "60%"

[[record]]
entry_smiles = "CNC(=O)/C(=N/OC)c1cccc(C)c1CO/N=C(\\C)c1ccccc1C(F)(F)F"
measurement = "47%"

[[record]]
entry_smiles = "CO/C=C(/C(=O)OC)c1cccc(C)c1CO/N=C(\\C)c1c(Cl)ccc(F)c1OC(F)(F)F"
measurement = "80%"

